Molecular target: Histone deacetylase 1 (Homo sapiens, UniProt Q13547)
Sequence (Q13547 whole entry): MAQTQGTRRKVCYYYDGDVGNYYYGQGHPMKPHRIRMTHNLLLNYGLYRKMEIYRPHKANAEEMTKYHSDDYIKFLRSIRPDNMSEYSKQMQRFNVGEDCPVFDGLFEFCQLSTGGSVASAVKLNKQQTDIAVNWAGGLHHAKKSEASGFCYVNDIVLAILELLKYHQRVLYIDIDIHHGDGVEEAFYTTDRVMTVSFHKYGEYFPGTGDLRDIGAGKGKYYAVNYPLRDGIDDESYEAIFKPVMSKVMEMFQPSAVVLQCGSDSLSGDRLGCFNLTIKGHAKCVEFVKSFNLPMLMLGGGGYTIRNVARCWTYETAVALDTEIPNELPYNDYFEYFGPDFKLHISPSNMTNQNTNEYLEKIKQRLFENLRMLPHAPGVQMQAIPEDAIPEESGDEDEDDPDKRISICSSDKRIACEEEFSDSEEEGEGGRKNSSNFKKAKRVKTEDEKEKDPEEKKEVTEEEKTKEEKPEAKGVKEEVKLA
Assay: Inhibition of HDAC1 in human 293T cells after 16 hrs by fluorimetry
Type: cell-based
measurementName: IC50 (µM)

COc1cc(NC(=O)[C@H](CCCCNS(N)(=O)=O)NC(=O)OCc2ccccc2)c2ncccc2c1 ... 1.8
NS(=O)(=O)NCCCC[C@H](NC(=O)OCc1ccccc1)C(=O)Nc1nc(-c2ccccc2)cs1 ... 2.3

* * *

Biological target: Histone deacetylase 1 (Homo sapiens, UniProt Q13547)
Test: Inhibition of human recombinant C-terminal FLAG-tagged HDAC1 expressed in baculovirus by fluorimetry
Listing of recorded IC50 by entry.

CN(C)S(=O)(=O)NCCCCCC(=O)Nc1cccc(-c2ccccc2)c1 ... > 10 µM

IC50 of CC(=O)NS(=O)(=O)NCCCCCC(=O)Nc1cccc(-c2ccccc2)c1 , assay on Histone deacetylase 1 (Homo sapiens, UniProt Q13547), is > 10 µM

IC50 of NS(=O)(=O)NCCCC[C@H](NC(=O)OCc1ccccc1)C(=O)Nc1nc(-c2ccccc2)cs1 , assay on Histone deacetylase 1 (Homo sapiens, UniProt Q13547), is 0.16 µM

IC50 of CN(CCCCCC(=O)Nc1cccc(-c2ccccc2)c1)S(N)(=O)=O , assay on Histone deacetylase 1 (Homo sapiens, UniProt Q13547), is > 10 µM

IC50 of NS(=O)(=O)NCCCCCC(=O)Nc1cccc2cccnc12 , assay on Histone deacetylase 1 (Homo sapiens, UniProt Q13547), is > 10 µM

* * *

Molecular target: Histone deacetylase 1 (Homo sapiens, UniProt Q13547)
Experiment: Inhibition of human recombinant C-terminal FLAG-tagged HDAC1 expressed in baculovirus by fluorimetry
Listing of recorded IC50 by entry.

NS(=O)(=O)NCCCCCC(=O)Nc1nc(-c2ccccc2)cs1 ... > 10 µM
NS(=O)(=O)NC(=O)CCCCCC(=O)Nc1cccc(-c2ccccc2)c1 ... > 10 µM

--- query ---
The compound identified as NS(=O)(=O)NCCCCC(=O)Nc1cccc(-c2ccccc2)c1 registered its IC50 at > 10 µM

* * *

Molecular target: Protein deacetylase HDAC6 (Homo sapiens, UniProt Q9UBN7)
Sequence (Q9UBN7 whole entry): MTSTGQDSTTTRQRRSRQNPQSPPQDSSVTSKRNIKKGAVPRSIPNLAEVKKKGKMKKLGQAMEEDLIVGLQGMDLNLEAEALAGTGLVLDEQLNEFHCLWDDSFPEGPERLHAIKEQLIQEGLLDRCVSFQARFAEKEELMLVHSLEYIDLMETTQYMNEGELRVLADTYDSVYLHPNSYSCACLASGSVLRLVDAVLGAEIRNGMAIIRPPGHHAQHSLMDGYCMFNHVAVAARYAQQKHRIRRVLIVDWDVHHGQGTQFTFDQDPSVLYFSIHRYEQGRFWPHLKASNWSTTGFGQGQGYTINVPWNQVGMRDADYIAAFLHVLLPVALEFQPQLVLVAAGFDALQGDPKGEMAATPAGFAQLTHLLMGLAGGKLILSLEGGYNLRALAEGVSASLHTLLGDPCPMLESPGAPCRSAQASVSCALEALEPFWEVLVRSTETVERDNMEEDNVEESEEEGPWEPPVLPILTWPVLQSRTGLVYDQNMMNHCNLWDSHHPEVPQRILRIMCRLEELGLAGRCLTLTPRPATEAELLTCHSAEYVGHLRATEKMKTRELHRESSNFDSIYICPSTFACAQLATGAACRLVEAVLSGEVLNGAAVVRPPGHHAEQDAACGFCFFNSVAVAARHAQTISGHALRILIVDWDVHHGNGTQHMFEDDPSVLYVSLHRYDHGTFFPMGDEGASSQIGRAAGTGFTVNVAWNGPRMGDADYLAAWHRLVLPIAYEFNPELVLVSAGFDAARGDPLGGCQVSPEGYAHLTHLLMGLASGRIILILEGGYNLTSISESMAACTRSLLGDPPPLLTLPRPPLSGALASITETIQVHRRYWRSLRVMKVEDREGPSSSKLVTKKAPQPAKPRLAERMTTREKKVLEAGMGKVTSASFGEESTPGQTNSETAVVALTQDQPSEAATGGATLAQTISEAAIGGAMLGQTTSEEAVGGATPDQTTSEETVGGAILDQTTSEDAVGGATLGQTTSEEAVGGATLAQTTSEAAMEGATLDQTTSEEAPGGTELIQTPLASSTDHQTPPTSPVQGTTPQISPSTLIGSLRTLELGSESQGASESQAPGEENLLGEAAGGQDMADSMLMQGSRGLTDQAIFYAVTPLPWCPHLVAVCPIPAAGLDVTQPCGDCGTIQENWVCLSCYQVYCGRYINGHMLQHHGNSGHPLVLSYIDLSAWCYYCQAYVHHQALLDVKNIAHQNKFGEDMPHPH
Assay: Inhibition of human recombinant N-terminal histidine-tagged HDAC6 expressed in baculovirus by fluorimetry
measurementName: IC50 (nM)

COc1cc(NC(=O)CCCCCNS(N)(=O)=O)c2ncccc2c1 ... 440

(P) O=C(CCCCCCC(=O)Nc1cccc(-c2ccccc2)c1)NO
(Q) NS(=O)(=O)NCCCCCC(=O)Nc1ccc2ncccc2c1
(R) NS(=O)(=O)NCCCCCC(=O)Nc1ccccc1
Task: // ranking: key=IC50, reverse=True Use the labels to give the ranking in the order requested.
Result: R, Q, P
(R: 1500 nM, Q: 490 nM, P: 9 nM)

* * *

Molecular target: UniProt:Q13547
Assay: Inhibition of human recombinant C-terminal FLAG-tagged HDAC1 expressed in baculovirus by fluorimetry
measurementName: IC50 (µM)

(I) Nc1ccccc1NC(=O)CCCCCCC(=O)Nc1cccc(-c2ccccc2)c1
(II) O=C(CCCCCCC(=O)Nc1cccc(-c2ccccc2)c1)NO
Task: Select the item with the higher value of IC50 from the options I and II listed. Lab log: write the label of the selected item as the result.
Result: I

* * *

Biological target: Histone deacetylase 1 (Homo sapiens, UniProt Q13547)
Test: Inhibition of human recombinant C-terminal FLAG-tagged HDAC1 expressed in baculovirus by fluorimetry
Listing of recorded IC50 by entry.

Known IC50 results, listed for orientation:
NS(=O)(=O)NCCCCCC(=O)Nc1ccc2ncccc2c1 ... > 10 µM
NS(=O)(=O)OCCCCCC(=O)Nc1cccc(-c2ccccc2)c1 ... > 10 µM

IC50 of NS(=O)(=O)NCCCCCC(=O)Nc1cnc2ccccc2c1 , assay on Histone deacetylase 1 (Homo sapiens, UniProt Q13547), is > 10 µM
